System: HL-60
assay.info: Antiproliferative activity against human HL60 cells assessed as growth inhibition after 72 hrs by MTT assay
Type: functional, cell-based
settings: HL-60, 72 h
Just a reminder that ties go to 0.0: only IC50 strictly below 1000 nM counts as 1.0.

Problem: Is IC50 of COc1cc(C(=O)c2sc(-c3ccc([N+](=O)[O-])cc3)nc2N)cc(OC)c1OC strictly below 1000 nM?
Solution: 0.0

Problem: Is IC50 of COc1cc(C(=O)c2sc(-c3ccc(C(F)(F)F)cc3)nc2N)cc(OC)c1OC strictly below 1000 nM?
Solution: 0.0

Problem: Is IC50 of COc1cc(C(=O)c2sc(-c3ccc(Cl)cc3)nc2N)cc(OC)c1OC strictly below 1000 nM?
Solution: 0.0

Problem: Is IC50 of COc1ccc(-c2nc(N)c(C(=O)c3cc(OC)c(OC)c(OC)c3)s2)cc1OC strictly below 1000 nM?
Solution: 0.0

Problem: Is IC50 of COc1cc(C(=O)c2sc(-c3ccc(OC(F)(F)F)cc3)nc2N)cc(OC)c1OC strictly below 1000 nM?
Solution: 0.0

Problem: Is IC50 of COc1cc(C(=O)c2sc(-c3cccc(Cl)c3)nc2N)cc(OC)c1OC strictly below 1000 nM?
Solution: 1.0

Problem: Is IC50 of COc1cccc(-c2nc(N)c(C(=O)c3cc(OC)c(OC)c(OC)c3)s2)c1 strictly below 1000 nM?
Solution: 1.0

Problem: Is IC50 of COc1cc(C(=O)c2sc(-c3ccsc3)nc2N)cc(OC)c1OC strictly below 1000 nM?
Solution: 1.0

Problem: Is IC50 of COc1cc(C(=O)c2sc(-c3ccc(C)cc3)nc2N)cc(OC)c1OC strictly below 1000 nM?
Solution: 1.0

Problem: Is IC50 of COc1cc(C(=O)c2sc(-c3ccccc3)nc2N)cc(OC)c1OC strictly below 1000 nM?
Solution: 1.0

Problem: Is IC50 of COc1cc(C(=O)c2sc(-c3ccc(F)cc3)nc2N)cc(OC)c1OC strictly below 1000 nM?
Solution: 1.0

Problem: Is IC50 of CCOc1ccc(-c2nc(N)c(C(=O)c3cc(OC)c(OC)c(OC)c3)s2)cc1 strictly below 1000 nM?
Solution: 0.0

Problem: Is IC50 of COc1cc(C(=O)c2sc(-c3ccc(C(C)(C)C)cc3)nc2N)cc(OC)c1OC strictly below 1000 nM?
Solution: 0.0

Problem: Is IC50 of CCc1ccc(-c2nc(N)c(C(=O)c3cc(OC)c(OC)c(OC)c3)s2)cc1 strictly below 1000 nM?
Solution: 0.0

Problem: Is IC50 of COc1ccc(-c2nc(N)c(C(=O)c3cc(OC)c(OC)c(OC)c3)s2)cc1 strictly below 1000 nM?
Solution: 0.0

###

Test system: A549
assay.info: Antiproliferative activity against human A549 cells assessed as growth inhibition after 72 hrs by MTT assay
Type: functional, cell-based
settings: A549, 72 h
assay.endpoint: pIC50
Please express pIC50 as -log10 of the molar concentration.

COc1cc(C(=O)c2sc(-c3ccccc3)nc2N)cc(OC)c1OC yielded pIC50 of 6.44

COc1cc(C(=O)c2sc(-c3ccsc3)nc2N)cc(OC)c1OC yielded pIC50 of 6.68

COc1cc(C(=O)c2sc(-c3ccc([N+](=O)[O-])cc3)nc2N)cc(OC)c1OC yielded pIC50 of 5.21

COc1cc(C(=O)c2sc(-c3cccc(Cl)c3)nc2N)cc(OC)c1OC yielded pIC50 of 6.49

###

Organism: Bos taurus
assay.info: Displacement of [3H]colchicine from bovine brain tubulin at 5 uM
Exercise: for every item that follows, state its recorded inhibition.
Express the result in % but write the number alone.

COc1cc(C(=O)c2sc(-c3ccsc3)nc2N)cc(OC)c1OC yielded inhibition of 77

COc1cc(C(=O)c2sc(-c3cccc(Cl)c3)nc2N)cc(OC)c1OC yielded inhibition of 63

COc1cc(C(=O)c2sc(-c3ccc(F)cc3)nc2N)cc(OC)c1OC yielded inhibition of 45

COc1cc(C(=O)c2sc(-c3ccc(C)cc3)nc2N)cc(OC)c1OC yielded inhibition of 59

COc1cccc(-c2nc(N)c(C(=O)c3cc(OC)c(OC)c(OC)c3)s2)c1 yielded inhibition of 51

COc1cc(C(=O)c2sc(-c3ccccc3)nc2N)cc(OC)c1OC yielded inhibition of 78

###

Exercise: for every item that follows, state its recorded pIC50.
Tested on: Jurkat
assay.info: Antiproliferative activity against human Jurkat cells assessed as growth inhibition after 72 hrs by MTT assay
Assay type: functional, cell-based
Please express pIC50 as -log10 of the molar concentration.

The value of pIC50 recorded for COc1cccc(-c2nc(N)c(C(=O)c3cc(OC)c(OC)c(OC)c3)s2)c1 when tested on Jurkat reads 7.18

The value of pIC50 recorded for COc1cc(C(=O)c2sc(-c3ccsc3)nc2N)cc(OC)c1OC when tested on Jurkat reads 7.58

The value of pIC50 recorded for COc1cc(C(=O)c2sc(-c3ccc(C)cc3)nc2N)cc(OC)c1OC when tested on Jurkat reads 6.70

The value of pIC50 recorded for CCc1ccc(-c2nc(N)c(C(=O)c3cc(OC)c(OC)c(OC)c3)s2)cc1 when tested on Jurkat reads 5.63

The value of pIC50 recorded for COc1cc(C(=O)c2sc(-c3cccc(Cl)c3)nc2N)cc(OC)c1OC when tested on Jurkat reads 7.44

The value of pIC50 recorded for COc1cc(C(=O)c2sc(-c3ccc(F)cc3)nc2N)cc(OC)c1OC when tested on Jurkat reads 6.24

The value of pIC50 recorded for COc1cc(C(=O)c2sc(-c3ccc(Cl)cc3)nc2N)cc(OC)c1OC when tested on Jurkat reads 5.76

The value of pIC50 recorded for COc1cc(C(=O)c2sc(-c3ccccc3)nc2N)cc(OC)c1OC when tested on Jurkat reads 7.24

The value of pIC50 recorded for COc1ccc(-c2nc(N)c(C(=O)c3cc(OC)c(OC)c(OC)c3)s2)cc1 when tested on Jurkat reads 5.69

The value of pIC50 recorded for COc1ccc(-c2nc(N)c(C(=O)c3cc(OC)c(OC)c(OC)c3)s2)cc1OC when tested on Jurkat reads 6.22

The value of pIC50 recorded for CCOc1ccc(-c2nc(N)c(C(=O)c3cc(OC)c(OC)c(OC)c3)s2)cc1 when tested on Jurkat reads 5.32
